molecular target: 28 common HLA alleles (27 from the reference set plus DPB1*03:01), purified MHC molecules; experiment: competition assay, inhibition of radiolabeled ligand binding to purified HLA class II; bound = IC50 <1000 nM
Would you kindly list No. of HLA-II alleles bound for each of these binders?
The answer is to be given in alleles; state only the numeric part.

Sure, the documented No. of HLA-II alleles bound for SLFFSAQPFEITAST [APOB peptide 13 (…)] is 23

Summary for this binder, LSQLQTYMIQFDQYI [APOB peptide 9 (…)] : No. of HLA-II alleles bound is 17

binder VGSKLIVAMSSWLQK [APOB peptide 5 (…)] , No. of HLA-II alleles bound observed: 21

// field: No. of HLA-II alleles bound; key: LEVLNFDFQANAQLS [APOB peptide 12 (…)] ; value = 18

The binder QIHQYIMALREEYFD [APOB peptide 19 (…)] showed No. of HLA-II alleles bound equal to 25

// HFSNVFRSVMAPFTM [APOB peptide 7 (…)] : No. of HLA-II alleles bound value = 22

What the record says about IKHIYAISSAALSAS [APOB peptide 6 (…)] : No. of HLA-II alleles bound is 20

The reported measurements were obtained from patent US20260000710A1.
